B1: Cytoplasmic polyadenylation element-binding protein 2, residues 513 to 575; numbered along this chain, Q7Z5Q1 (parent)
chain: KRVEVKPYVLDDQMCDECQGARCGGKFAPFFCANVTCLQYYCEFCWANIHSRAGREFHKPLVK

- Variants of: B1
- protocolText: abundance fitness (aPCA) (normalised: wild type 0, dead -1); higher = more abundant; growth selection in yeast, the domain comes from the species named
- measurementParameters: Homo sapiens
endpointLabel: abundance fitness
Output: the number by itself.

Examples with answers:
mutantcode=F30A endpointlabel="abundance fitness" numericresult=-0.261
mutantcode=E17T endpointlabel="abundance fitness" numericresult=-0.22
mutantcode=K59C endpointlabel="abundance fitness" numericresult=-0.199
mutantcode=F30Q endpointlabel="abundance fitness" numericresult=0.016
mutantcode=C32G endpointlabel="abundance fitness" numericresult=-0.802

Lab note: next variant to report on.
Q: Please report the recorded abundance fitness for "P7D" .
Result: 0.132

Data provenance is the Human Domainome abundance scans (Beltran et al. 2025).
